The reader will find reported FACS signal at 0.32 nM values listed item by item below.
Molecular target: human Claudin-6 (CLDN6) (human) (UniProt P56747)
Experiment: FACS, limiting dilution, ARK2 cells
Observable: FACS signal at 0.32 nM

[[record]]
binder = "AB S12 (antibody, V domains shown) VH: QVQLVQSGAEVKKPGASVKMSCKASGYTFTTYTMHWVRQAPGQGLEWIGFINPSSGYTEYAQKFQGRVTLTADKSTSTVYMELSSLRSEDTAVYFCANGDYYVGYWGQGTLVTVSS VL: DIQLTQSPSSLSASVGDRVTMTCTASSSVSSTYFHWYQQKPGKAPKLWIYSTSNLASGVPSRFSGSGSGTDYTLTISSMQPEDAATYYCHQYHRSPLTFGQGTKLEIK"
endpoint_value = 1310

[[record]]
binder = "AB S6 (antibody, V domains shown) VH: EVQLLESGGGLVQPGGSMRLSCAASGFTFSNYWMNWVRQAPGKGLEWLAQIRLKSDNYVTHYADSVKGRFTISRDDSKRTVYLQMNSLRAEDTGTYYCNDGPPSGSWGQGTLLTVSS VL: DIQMTQSPSSLSASVGDRVTITCRISENIYSYLAWYQQKPGKAPKLLVYNAKILVEGVPSRFSGSGSGTDFTLTISSLQPEDFGTYYCQHHYTVPWTFGQGTKLEIK"
endpoint_value = 448

[[record]]
binder = "AB S5 (antibody, V domains shown) VH: EVQLLESGGGLVQPGGSMRLSCAASGFTFSNYWMNWVRQAPGKGLEWLAQIRLKSDNYATHYTDSVKGRFTISRDDSKRTVYLQMNSLRAEDTGIYYCSDGPPSGSWGQGTLLTVSS VL: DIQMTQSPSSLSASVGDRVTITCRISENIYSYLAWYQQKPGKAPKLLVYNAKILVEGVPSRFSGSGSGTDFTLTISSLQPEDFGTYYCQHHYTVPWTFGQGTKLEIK"
endpoint_value = 372

[[record]]
binder = "AB S1 (antibody, V domains shown) VH: EVQLLESGGGLVQPGGSMRLSCAASGFTFSNYWMNWVRQAPGKGLEWIAQIRLKSDNYATHYTDSVKGRFTISRDDSKRTVYLQMNSLRAEDTGTYYCSDGPPSGSWGQGTLLTVSS VL: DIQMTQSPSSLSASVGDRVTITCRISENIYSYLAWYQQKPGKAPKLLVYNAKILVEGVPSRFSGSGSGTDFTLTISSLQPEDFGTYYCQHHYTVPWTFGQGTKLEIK"
endpoint_value = 466

[[record]]
binder = "AB1-11 (antibody, V domains shown, humanized; also called humanized AB1-11; HU-11) VH: QVQLVQSGAEVKKPGASVKMSCKASGYTFTTYTMHWVRQAPGQGLEWIGFINPSSGYTDYAQKFQGRVTLTADKSTSTVYMELSSLRSEDTAVYYCANGDYYVAYWGQGTLVTVSS VL: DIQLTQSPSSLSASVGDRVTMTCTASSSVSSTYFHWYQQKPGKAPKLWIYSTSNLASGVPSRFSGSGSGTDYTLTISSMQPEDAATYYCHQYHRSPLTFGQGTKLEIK"
endpoint_value = 377

[[record]]
binder = "AB S8 (antibody, V domains shown) VH: QVQLVQSGAEVKKPGASVKMSCKASGYTFTTYTMHWVRQAPGQGLEWIGVINPSSGYTEYAQKFQGRVTLTADKSTSTVYMELSSLRSEDTAVYFCANGDYYVGYWGQGTLVTVSS VL: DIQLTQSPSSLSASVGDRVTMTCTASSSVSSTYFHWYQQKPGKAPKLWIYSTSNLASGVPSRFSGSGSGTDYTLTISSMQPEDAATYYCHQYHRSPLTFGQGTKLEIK"
endpoint_value = 1640

[[record]]
binder = "AB3-7 (antibody, V domains shown, humanized; also called AB23; humanized AB3-7) VH: EVQLLESGGGLVQPGGSMRLSCAASGFTFSNYWMNWVRQAPGKGLEWVAQIRLKSDNYATHYADSVKGRFTISRDDSKNTVYLQMNSLRAEDTGVYYCNDGPPSGSWGQGTLLTVSS VL: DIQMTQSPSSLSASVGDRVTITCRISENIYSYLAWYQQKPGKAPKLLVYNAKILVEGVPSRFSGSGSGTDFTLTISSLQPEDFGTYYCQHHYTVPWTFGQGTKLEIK"
endpoint_value = 402

